B1: C10orf62 (parent)
chain: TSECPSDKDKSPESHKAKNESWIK

Variants of: B1
Assay protocol: protein stability index of a GFP-peptide fusion (GPS, HEK-293T) (PSI 1-6); higher = more stable;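 also: lentivirally expressed fusions sorted by FACS into six bins by GFP to DsRed ratio, PSI derived from sequencing read proportions per bin multiplied by bin number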
Condition parameters: c terminus: a fixed tail appended
Tag: Y if measured protein stability index is not below 4, N if it is.

> print(dat)
    variant.spec  discrete.label
 1          K24H               N
 2          W22L               Y
 3           C4Y               N
 4          W22I               Y
 5          P12F               N
 6          W22D               Y
 7          K24V               N
 8          A17S               N
 9          K16W               N
10           K8E               Y
11          K24L               N
12          H15C               N
13          S21W               Y
14           D9G               N
15          K18E               N
16          S14R               N
17           D9M               N
